Assay: Ferric-ion reducing antioxidant power (FRAP) assay
Conditions: ascorbic acid equivalent; mean ± SD of triplicate
Tag: 1 (yes) if measured FRAP is not below 0.6 mM AAE/g, 0 (no) if it is.

Could you verify whether the entry O=C(O[C@@H]1Cc2c(O)cc(O)cc2O[C@@H]1c1cc(O)c(O)c(O)c1)c1cc(O)c(O)c(O)c1 [EGCG, epigallocatechin gallate, reference compound] shows FRAP of no less than 0.6 mM AAE/g?
1 (yes)

Check if FRAP >= 0.6 mM AAE/g (inclusive). Item: CC(C)c1cc2c(c(O)c1O)[C@@]13CCCC(C)(C)[C@@H]1[C@H](OC3=O)[C@H]2O [Rosmanol, rosmanol]
1 (yes)

API: above_or_equal(metric=FRAP, cutoff=0.6 mM AAE/g) for item CC(C)c1cc2c(c(O)c1O)[C@@]13CCCC(C)(C)[C@@H]1C[C@@H]2OC3=O [Carnosol, carnosol]
1 (yes)

State whether the measured FRAP reaches 0.6 mM AAE/g, counting equality as reaching it, for COc1c(C(C)C)cc2c(c1O)[C@@]1(C(=O)O)CCCC(C)(C)[C@@H]1CC2 [12-methoxycarnosic acid]
0 (no)

====

observed property: IC50 (µM)
Write the value in µM as a bare number.

Item "CC(C)c1cc2c(c(O)c1O)[C@@]13CCCC(C)(C)[C@@H]1[C@H](OC3=O)[C@H]2O" with alpha-glucosidase (Saccharomyces cerevisiae) (Saccharomyces cerevisiae) - IC50?
47.3

Give IC50 (alpha-glucosidase (Saccharomyces cerevisiae) (Saccharomyces cerevisiae)) of the following molecule: "CC(C)c1cc2c(c(O)c1O)[C@@]13CCCC(C)(C)[C@@H]1C[C@@H]2OC3=O"
157

Give alpha-glucosidase (Saccharomyces cerevisiae) (Saccharomyces cerevisiae) IC50 for "COc1c(C(C)C)cc2c(c1O)[C@@]1(C(=O)O)CCCC(C)(C)[C@@H]1CC2"
107

====

Assign IC50 to each entry below.
// return numeric value only (unit: µM, not printed)

Can you look up IC50 on alpha-amylase (procaine pancreas) (Sus scrofa) for "COc1c(C(C)C)cc2c(c1O)[C@@]1(C(=O)O)CCCC(C)(C)[C@@H]1CC2" ?
46.8

Return IC50 measured with alpha-amylase (procaine pancreas) (Sus scrofa) given this compound: "CC(C)c1cc2c(c(O)c1O)[C@@]13CCCC(C)(C)[C@@H]1[C@H](OC3=O)[C@H]2O"
Sequence (P00690 16-511): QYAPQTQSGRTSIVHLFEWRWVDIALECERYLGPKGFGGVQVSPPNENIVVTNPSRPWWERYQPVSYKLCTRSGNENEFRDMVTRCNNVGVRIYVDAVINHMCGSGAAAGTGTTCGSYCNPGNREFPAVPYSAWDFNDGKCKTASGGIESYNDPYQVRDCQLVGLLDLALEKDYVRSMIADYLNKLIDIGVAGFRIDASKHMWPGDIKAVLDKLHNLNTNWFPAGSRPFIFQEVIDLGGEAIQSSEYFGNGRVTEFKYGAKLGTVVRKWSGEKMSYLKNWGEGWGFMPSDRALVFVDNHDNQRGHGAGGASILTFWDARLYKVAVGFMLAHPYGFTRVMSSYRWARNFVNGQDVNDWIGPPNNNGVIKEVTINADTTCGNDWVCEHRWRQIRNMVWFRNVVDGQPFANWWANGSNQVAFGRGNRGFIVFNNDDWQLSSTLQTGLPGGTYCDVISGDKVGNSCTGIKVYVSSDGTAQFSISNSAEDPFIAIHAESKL
118

====

Assay: Trolox equivalent absorbance capacity (TEAC) assay
Conditions: mean ± SD of triplicate
observed property: log10(TEAC) (log10 of the value in mM TE/g)
Hello, just confirming the data are log10 of TEAC with units of mM TE/g.

Given COc1ccc(-c2cc(=O)c3c(O)cc(OC)cc3o2)cc1 [4,7-dimethylapigenin ether, 4,7-dimethylapigenin] , state its recorded log10(TEAC).
0.50

Using the record for CC(C)c1cc2c(c(O)c1O)[C@@]13CCCC(C)(C)[C@@H]1[C@H](OC3=O)[C@H]2O [Rosmanol, rosmanol] , report its log10(TEAC).
0.31

Sample CC(C)c1cc2c(c(O)c1O)[C@@]13CCCC(C)(C)[C@@H]1C[C@@H]2OC3=O [Carnosol, carnosol] — what was its log10(TEAC)?
-0.48

I'd like to know its log10(TEAC). The molecule in question is O=C(O[C@@H]1Cc2c(O)cc(O)cc2O[C@@H]1c1cc(O)c(O)c(O)c1)c1cc(O)c(O)c(O)c1 [EGCG, epigallocatechin gallate, reference compound]
0.62

Entry under review: COc1c(C(C)C)cc2c(c1O)[C@@]1(C(=O)O)CCCC(C)(C)[C@@H]1CC2 [12-methoxycarnosic acid] . Reported log10(TEAC)?
-0.47

Source listed as paper PMC7699461.
